# Experimental Target: T1, HLA-A*02:01 (human)
# T1 construct: MHC monomers first loaded with a UV-sensitive peptide (not identified) that is cleaved and exchanged for the test peptide; captured on streptavidin-coated plates and detected with anti-β2m; also called peptide-receptive MHC molecules; MHC class I
# Experimental Details: UV-ligand exchange, anti-b2m ELISA; peptide exchange yield grade
Recorded measurements of peptide exchange yield, one per entry

Examples from the recorded data:
1) ALAGLVYDA :: ≥ 75%
2) SLRDGTEVV :: 50 to 75%
3) YMDGTMSQV :: 50 to 75%
4) LLDDQTVTF :: 50 to 75%
5) FLGEDISNFL :: ≥ 75%

Problem: Look up peptide exchange yield for this binder: VIDSTLVKV
Result: 50 to 75%

Problem: Entry to check: LLDSTAHLL
Result: ≥ 75%

Problem: Entry to check: SLSDVSQAV
Result: 50 to 75%

Problem: Entry to check: HLCNHDVSL
Result: ≥ 75%

Problem: Entry to check: TLDITIVNL
Result: ≥ 75%

Problem: Entry to check: KLLNDLTSI
Result: ≥ 75%

Problem: Entry to check: KILDFTGPLFL
Result: ≥ 75%

Problem: Entry to check: SLLFQDITL
Result: ≥ 75%

Problem: Entry to check: ALADLTGTVVNL
Result: ≥ 75%

Problem: Entry to check: SLLDENDVSSYL
Result: ≥ 75%

Problem: Entry to check: FLKDVTAQI
Result: ≥ 75%
